molecular target: rRNA adenine N-6-methyltransferase (Staphylococcus aureus (strain N315)); test: Inhibition of recombinant bacterial ErmC' expressed in Escherichia coli DH5alpha assessed as potentiation of erythromycin-mediated growth inhibition by measuring erythromycin MIC after 18 hrs by dilution method (reference value: > 2560 mg/L); conditions: Bacteria

Smiles Record	Assayed System	U	Censor Symbol	MIC
CC(=O)Nc1nc(C)c(-c2csc(Nc3cccc(O)c3)n2)s1	rRNA adenine N-6-methyltransferase (Staphylococcus aureus (strain N315))	µg/mL	=	2000
Nc1nc(N)nc(COC(=O)c2occc2COc2ccccc2)n1	rRNA adenine N-6-methyltransferase (Staphylococcus aureus (strain N315))	µg/mL	=	2560
O=C(Nc1ccn(CCc2ccncc2)n1)Nc1ccc(F)cc1F	rRNA adenine N-6-methyltransferase (Staphylococcus aureus (strain N315))	µg/mL	>	2560
Cc1cnc(C(=O)NCCNc2ncccc2C(F)(F)F)cn1	rRNA adenine N-6-methyltransferase (Staphylococcus aureus (strain N315))	µg/mL	=	2560
O=C(NCc1cccc(Cn2ccnc2)c1)c1cc2ccccc2o1	rRNA adenine N-6-methyltransferase (Staphylococcus aureus (strain N315))	µg/mL	>	2560
O=C(c1cnn[nH]1)N1CCN(c2ccc(C(F)(F)F)cn2)CC1	rRNA adenine N-6-methyltransferase (Staphylococcus aureus (strain N315))	µg/mL	=	2560

====

target: rRNA adenine N-6-methyltransferase (Staphylococcus aureus, UniProt P02979)
Sequence (P02979 whole entry): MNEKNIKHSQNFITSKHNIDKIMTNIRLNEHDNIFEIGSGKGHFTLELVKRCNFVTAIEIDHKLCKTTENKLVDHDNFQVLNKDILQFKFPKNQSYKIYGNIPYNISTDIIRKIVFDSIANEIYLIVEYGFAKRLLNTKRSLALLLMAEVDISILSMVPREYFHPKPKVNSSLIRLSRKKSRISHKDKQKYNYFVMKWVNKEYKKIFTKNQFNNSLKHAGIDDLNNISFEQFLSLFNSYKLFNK

Smiles Record	IC50 [nM]
CC(C)c1ccc(NC(=S)N/N=C/c2cc(Cl)cc(Cl)c2O)cc1	450

====

# Lookup of reported MIC keyed by entry
biological target: rRNA adenine N-6-methyltransferase (Staphylococcus aureus (strain N315)) (UniProt P0A0H2); assay: Inhibition of recombinant bacterial ErmC' expressed in Escherichia coli DH5alpha assessed as potentiation of erythromycin-mediated growth inhibition by measuring erythromycin MIC after 18 hrs by dilution method (reference value: > 2560 mg/L); settings: Bacteria
Quantity: MIC

Smiles Record	Assayed System	Data Value
O=C(c1c[nH]c(=O)[nH]1)N1CCN(c2ccc(C(F)(F)F)cn2)CC1	rRNA adenine N-6-methyltransferase (Staphylococcus aureus (strain N315)) (UniProt P0A0H2)	2560 µg/mL
Nc1nc(N)nc(CSc2nnc(NCc3ccccc3)s2)n1	rRNA adenine N-6-methyltransferase (Staphylococcus aureus (strain N315)) (UniProt P0A0H2)	2560 µg/mL
COc1ccc(C(=O)CSc2nc(O)cc(=O)[nH]2)cc1	rRNA adenine N-6-methyltransferase (Staphylococcus aureus (strain N315)) (UniProt P0A0H2)	2000 µg/mL
O=C(CCn1cncn1)NCc1cccc(NC(=O)C2CCCC2)c1	rRNA adenine N-6-methyltransferase (Staphylococcus aureus (strain N315)) (UniProt P0A0H2)	2560 µg/mL
O=C(CSc1nc2cccnc2[nH]1)Nc1nccs1	rRNA adenine N-6-methyltransferase (Staphylococcus aureus (strain N315)) (UniProt P0A0H2)	2000 µg/mL
Cc1nccn1-c1ccc(CNc2nc3ccccc3o2)cc1F	rRNA adenine N-6-methyltransferase (Staphylococcus aureus (strain N315)) (UniProt P0A0H2)	2000 µg/mL

====

Biological target: rRNA adenine N-6-methyltransferase (Staphylococcus aureus (strain N315)) (UniProt P0A0H2)
Sequence (whole entry): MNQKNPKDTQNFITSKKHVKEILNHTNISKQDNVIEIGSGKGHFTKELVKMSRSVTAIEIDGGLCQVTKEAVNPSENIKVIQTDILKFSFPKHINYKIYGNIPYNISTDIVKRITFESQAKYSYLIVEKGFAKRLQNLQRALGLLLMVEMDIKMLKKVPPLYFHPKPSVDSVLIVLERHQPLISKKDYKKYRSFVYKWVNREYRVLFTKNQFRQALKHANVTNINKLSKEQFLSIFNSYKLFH
Experiment: Inhibition of recombinant bacterial ErmC' expressed in Escherichia coli DH5alpha assessed as potentiation of erythromycin-mediated growth inhibition by measuring erythromycin MIC after 18 hrs by dilution method (reference value: > 2560 mg/L)
Conditions: Bacteria

Compound	Censor Symbol	MIC / µg/mL
O=C(c1cn(-c2ccccc2)nn1)N1CCN(c2ccc(C(F)(F)F)cn2)CC1	=	2560
CCC1N=C(C)C(CN2CCN(c3ccc(C(F)(F)F)cn3)CC2)=N1 (stereo not given)	=	2000
Cc1cc(S(N)(=O)=O)cc(NC(=O)Cn2cnc(C#N)n2)c1C	=	2560
O=C(c1cc(Cl)c[nH]1)N1CCN(c2ncc(C(F)(F)F)cc2Cl)CC1	=	2000
O=C(Nc1cccc(NC(=O)c2cccc(F)c2)c1)c1ccncc1	=	2560
O=C(NCCOc1ccc2c(c1)OCO2)c1ccc2ccccc2n1	>	2560
O=C(CSc1nc2[nH]cnc2c(=O)[nH]1)Nc1ccc(O)cc1	=	2560
FC(F)(F)c1ccc(N2CCN(Cc3cn4ccccc4n3)CC2)nc1	=	2560
O=C(c1cc(C2CC2)n[nH]1)N1CCN(c2ccc(C(F)(F)F)cn2)CC1	=	2560
Cc1cnc(C(=O)NCCNc2ccc(C(F)(F)F)cn2)cn1	=	2560

====

assay: Cytotoxicity against HEK293 cells assessed as cell viability at 125 uM after 24 hrs by MTT assay relative to control; assay type: cell-based; conditions: human, read-out: Activity
Quantity: viability at 24 h, 125 µM (%)

Smiles Record	Data Value
O=C(c1c[nH]c(=O)[nH]1)N1CCN(c2ccc(C(F)(F)F)cn2)CC1	58
Cc1cccc(Nc2nc(C(=O)N3CCN(c4ccc(C(F)(F)F)cn4)CC3)cs2)n1	59

====

assay: Cytotoxicity against HEK293 cells assessed as cell viability at 125 to 1000 uM after 24 hrs by MTT assay relative to control; format: cell-based; details: human, read-out: Activity
Quantity: viability at 24 h, up to 1000 µM

Smiles Record	Quantity	Data Value
O=C(c1csc(Nc2ncccn2)n1)N1CCN(c2ccc(C(F)(F)F)cn2)CC1	viability at 24 h, up to 1000 µM	59 to 67%

====

test system: Escherichia coli; experiment: Antibacterial activity against Escherichia coli DH5alpha expressing recombinant bacterial ErmC' after 18 hrs by dilution method; format: ADME, organism-based, DH5[alpha]
Quantity: MIC

Smiles Record	Data Value
O=C(c1cn(-c2ccccc2)nn1)N1CCN(c2ccc(C(F)(F)F)cn2)CC1	>= 100 mg/L
Cc1nccc(C(=O)Nc2cc(NC(=O)c3ccccc3)ccc2C)n1	>= 100 mg/L
Cc1cnc(C(=O)NCCNc2ncccc2C(F)(F)F)cn1	>= 100 mg/L
O=C(CSc1nc2[nH]cnc2c(=O)[nH]1)Nc1ccc(O)cc1	>= 100 mg/L
O=C(c1cc(Cl)c[nH]1)N1CCN(c2ncc(C(F)(F)F)cc2Cl)CC1	>= 100 mg/L
CCCc1cc(C(=O)Nc2cccc(OCc3ccncc3)c2)[nH]n1	>= 100 mg/L

====

test: Cytotoxicity against HEK293 cells assessed as cell viability at 125 to 1000 uM after 24 hrs by MTT assay relative to control; assay type: cell-based; conditions: human, read-out: %max

Smiles Record	viability at 24 h, up to 1000 µM
CC(=O)Nc1nc(C)c(-c2csc(Nc3cccc(O)c3)n2)s1	4.5%

====

test system: Escherichia coli; experiment: Antibacterial activity against Escherichia coli DH5alpha expressing recombinant bacterial ErmC' after 18 hrs by dilution method; format: ADME, organism-based, DH5[alpha]

Smiles Record	MIC
Cc1nccn1-c1ccc(CNc2nc3ccccc3o2)cc1F	>= 100 mg/L
CN(C)c1ccc(CNC(=O)c2ccc(-n3cncn3)cc2)cc1	>= 100 mg/L
FC(F)(F)c1ccc(N2CCN(Cc3c[nH]c(-c4ccccc4)n3)CC2)nc1	>= 100 mg/L
Cc1occc1C(=O)Nc1nc(CC(=O)Nc2ccccc2)cs1	>= 100 mg/L
Cc1cc(S(N)(=O)=O)cc(NC(=O)Cn2cnc(C#N)n2)c1C	>= 100 mg/L
O=C(NC1CCN(c2nc3ccccc3s2)CC1)c1ccncc1	>= 100 mg/L
